Taken from patent US8557842B2.

Test: Brain uptake: brain and plasma levels by mass spectrometry
Conditions: male, CD-1, mouse, plasma, intraperitoneal, 30 mg/kg
Method: Data shown are mean±SEM (vertical bar). Brain and plasma levels of 11 were determined by mass spectrometry.
observation-type: concentration at 30 min (ng/mL)

>>> print(df.to_string())
                                   compound   unit  numeric_result
0  COC(=O)C1[C@@H](OC(=O)c2ccccc2)CC2CCC1(C)N2C (stereo partly shown) [Compound 11]  ng/mL            1700

###

Measurement record for human NET (Homo sapiens, UniProt P23975); quantity recorded: Ki.
observation-type: Ki (nM)

>>> print(df.to_string())
                                   molecule  observation_type  numeric_result
0  COC(=O)C1[C@@H](OC(=O)c2ccccc2)CC2CCC1(C)N2C (some centres unmarked)                Ki             488
1  CC[C@@]12CC[C@@H](C[C@H](OC(=O)c3ccccc3)[C@@H]1C(=O)OC)N2C [Compound 11b]                Ki             598
2  CCC[C@@]12CC[C@@H](C[C@H](OC(=O)c3ccccc3)[C@@H]1C(=O)OC)N2C [Compound 11a]                Ki             796
3  CCCCC[C@@]12CC[C@@H](C[C@H](OC(=O)c3ccccc3)[C@@H]1C(=O)OC)N2C [Compound 11c]                Ki            1600
4  COC(=O)[C@H]1[C@@H](OC(=O)c2ccccc2)C[C@@H]2CC[C@@]1(c1ccccc1)N2C [Compound 11d]                Ki            1980
